The reported measurements were obtained from PubChem BioAssay (NCI).

Test system: OVCAR-4 ovarian
Experiment: NCI-60 one-dose screen, 48 h (100 = growth as untreated, 0 = no growth, -100 = all killed)
Conditions: 10 µM unless noted
The panel holds about 83,000 compounds, 20% with a hit somewhere; the sample as a whole holds those more often.
Attribute: growth
Answer with a number only, understood to be in %.

Before answering, review these 4 worked examples.
N#CC(C#N)C(C#N)C#N :: 98.6
O=C(NCCNC(=O)Oc1cccc2ccccc12)Oc1cccc2ccccc12 :: 96.4
COc1ccc(CNC(=O)c2c(C)n([O-])c3ccccc3[n+]2=O)cc1 :: 97.7
Cc1ccc(/C=C/C(=O)c2ccc(F)cc2)s1 :: 81.2

Okay, now this compound:
Find the recorded growth belonging to C1CCC(C(CC2CCCCN2)C2CCCCC2)CC1 (stereo unspecified) and report it. 28.8
